Reference source: patent US10308662B2

- Tested on: MYCN-dependent MB patient derived xenograft (PDX) cell line
- protocol-text: Cytotoxicity / proliferation study, PDX MB
- Format: cell-based
- test-parameters: Homo sapiens
quantity-name: IC50

-- ask Look at this molecule and give its reported IC50. O=c1cc(N2CCOCC2)oc2c(-c3ccc4c(c3)OCCO4)csc12
-- reply 3.6 µM
